Answer each item with its documented IC50.
# Assay Text: Inhibition of Neisseria meningitidis alpha-1,4-galactosyltransferase assessed as enzyme activity using lactose as substrate preincubated for 60 mins followed by lactose and UDP-Gal addition measured after 20 mins by malachite green dye-based assay
Unit µM implied. Number only.

Can you look up the measured IC50 of COc1ccc(/C=C2\C(=O)N(c3ccccc3)N=C2C(F)(F)F)cc1Br for me?
3.1

Can you look up the measured IC50 of O=C1/C(=C\c2cccc(OCc3ccccc3)c2)C(C(F)(F)F)=NN1c1ccccc1 for me?
9

###

# Assay Text: Inhibition of Neisseria meningitidis alpha-1,4-galactosyltransferase assessed as enzyme activity using lactose as substrate preincubated for 5 mins followed by lactose and UDP-Gal addition measured after 20 mins by malachite green dye-based assay
Readout Kind: IC50 (µM)
Unit µM implied. Number only.

Can you look up the measured IC50 of COc1ccc(/C=C2\C(=O)N(c3ccccc3)N=C2C(F)(F)F)cc1Br for me?
24

###

# Assay Text: Inhibition of Neisseria meningitidis alpha-1,4-galactosyltransferase using lactose as substrate in presence of UDP-Gal measured after 20 min by malachite green dye-based assay
Readout Kind: pIC50
Units for pIC50: none; it is -log10 of a concentration expressed in mol/L.

Can you look up the measured pIC50 of CC1=NN(c2ccccc2)C(=O)/C1=C\c1ccccc1C(F)(F)F for me?
4.57

###

Answer each item with its documented IC50.
# Assay Text: Inhibition of Neisseria meningitidis alpha-1,4-galactosyltransferase assessed as enzyme activity using lactose as substrate preincubated for 30 mins followed by lactose and UDP-Gal addition measured after 20 mins by malachite green dye-based assay
Unit µM implied. Number only.

Can you look up the measured IC50 of COc1ccc(/C=C2\C(=O)N(c3ccccc3)N=C2C(F)(F)F)cc1Br for me?
3.1

Can you look up the measured IC50 of O=C1/C(=C\c2cccc(OCc3ccccc3)c2)C(C(F)(F)F)=NN1c1ccccc1 for me?
17.6

###

# Assay Text: Inhibition of Neisseria meningitidis alpha-1,4-galactosyltransferase assessed as enzyme activity using lactose as substrate in presence of UDP-Gal measured after 20 min by malachite green dye-based assay
pIC50: −log10 of the molar value.
Answer each item with its documented pIC50.

Can you look up the measured pIC50 of O=C1/C(=C\c2cccc(OCc3ccccc3)c2)C(C(F)(F)F)=NN1c1ccccc1 for me?
< 4.00

Can you look up the measured pIC50 of COc1ccc(/C=C2\C(=O)N(c3ccccc3)N=C2C(F)(F)F)cc1Br for me?
< 4.30

###

# Assay Text: Inhibition of Neisseria meningitidis alpha-1,4-galactosyltransferase assessed as enzyme activity using lactose as substrate preincubated for 0 to 30 mins measured after 20 mins in presence of UDP-Gal
Readout Kind: Ki (µM)
Unit µM implied. Number only.

Can you look up the measured Ki of O=C1/C(=C\c2cccc(OCc3ccccc3)c2)C(C(F)(F)F)=NN1c1ccccc1 for me?
46.3

Can you look up the measured Ki of COc1ccc(/C=C2\C(=O)N(c3ccccc3)N=C2C(F)(F)F)cc1Br for me?
4.4

###

Answer each item with its documented pIC50.
# Assay Text: Inhibition of Neisseria meningitidis alpha-1,4-galactosyltransferase assessed as enzyme activity using lactose as substrate preincubated for 180 mins followed by lactose and UDP-Gal addition measured after 20 mins by malachite green dye-based assay
Units for pIC50: none; it is -log10 of a concentration expressed in mol/L.

Can you look up the measured pIC50 of O=C1/C(=C\c2cccc(OCc3ccccc3)c2)C(C(F)(F)F)=NN1c1ccccc1 for me?
5.22

Can you look up the measured pIC50 of COc1ccc(/C=C2\C(=O)N(c3ccccc3)N=C2C(F)(F)F)cc1Br for me?
5.26
